- Species: Rattus norvegicus
- EXPERIMENT: Open TG-GATES - Regimen: Single
- Type: toxicity, organism-based, Sprague-Dawley
- Parameters: regimen Single, gender Male, age 6 weeks
- CONDITION_CONTEXT: in vivo, po, 0 mg/kg, 24 h, tissue Plasma, route gavage, dose level Control
I'd be grateful if you could share measured Na for these entries.
Please respond with the number in meq/L and leave the unit unwritten.

# get_value(readout='Na', item= `C=C[C@H]1C[N@@]2CC[C@H]1C[C@@H]2[C@@H](O)c1ccnc2ccc(OC)cc12` )
141.6

Sample `CC(=O)[C@@]1(O)CC[C@H]2[C@@H]3C=C(Cl)C4=CC(=O)CC[C@]4(C)[C@H]3CC[C@@]21C` — what was its Na?
140.6

Would you kindly share the measured Na for `Nc1ccc(Cc2ccc(N)cc2)cc1` ?
143.2

Return reported Na; argument: `O=c1ccc2ccccc2o1`
137.8

Value lookup for Na; key = `CN(C)CCCN1c2ccccc2Sc2ccc(Cl)cc21`
141.2

---

- Species on record: Rattus norvegicus
- EXPERIMENT: Open TG-GATES - Regimen: Daily Repeat
- Format: toxicity, organism-based, Sprague-Dawley
- Design: regimen Daily Repeat, gender Male, age 6 weeks
- CONDITION_CONTEXT: in vivo, po, 0 mg/kg, 72 h, tissue Plasma, route gavage, dose level Control, time 3 day
Decide using GLC alone. Strictly below 200 mg/dL: yes. Equal to or above 200 mg/dL: no.

Below 200 mg/dL on GLC? Entry `CCO`
no

A record lists `CC(=O)[C@@]1(O)CC[C@H]2[C@@H]3C=C(Cl)C4=CC(=O)CC[C@]4(C)[C@H]3CC[C@@]21C` . Is its GLC below 200 mg/dL?
yes

Dear reviewer, please state whether `CN(C/C=C/C#CC(C)(C)C)Cc1cccc2ccccc12` has GLC strictly beneath 200 mg/dL.
yes

Here's an entry: CCCCNC(=O)NS(=O)(=O)c1ccc(C)cc1 [TOLBUTAMIDE] . Is its GLC below 200 mg/dL?
yes

Please let me know if NS(=O)(=O)c1cc(C(=O)O)c(NCc2ccco2)cc1Cl [FUROSEMIDE] shows GLC below 200 mg/dL.
yes

---

- Species on record: Rattus norvegicus
- EXPERIMENT: Open TG-GATES - Regimen: Daily Repeat
- Type: toxicity, organism-based, Sprague-Dawley
- Parameters: regimen Daily Repeat, gender Male, age 6 weeks
- CONDITION_CONTEXT: in vivo, po, 1000 mg/kg, […], tissue Plasma, route gavage, dose level High, time 14 day
Could you please report measured A/G for the items listed next?
# respond with the number and nothing more

Reported A/G, compound CCCCNC(=O)NS(=O)(=O)c1ccc(C)cc1 [TOLBUTAMIDE] : ____
0.9

Entry CC(S)C(=O)NCC(=O)O (centres undefined) : reported A/G = ?
1.3

Which A/G value belongs to `O=C(O)c1ccccc1Nc1ccccc1` ?
0.9

// lookup A/G for `CC(=O)[C@@]1(O)CC[C@H]2[C@@H]3C=C(Cl)C4=CC(=O)CC[C@]4(C)[C@H]3CC[C@@]21C`
1.2

---

- Organism: Rattus norvegicus
- EXPERIMENT: Open TG-GATES - Regimen: Single
- Type: toxicity, organism-based, Sprague-Dawley
- Design: regimen Single, gender Male, age 6 weeks
- CONDITION_CONTEXT: in vivo, po, 0 mg/kg, 6 h, tissue Plasma, route gavage, dose level Control
RECORDED_ENDPOINT: Na (meq/L)
Respond with the bare value in meq/L.

What value of measured Na is listed for CC(S)C(=O)NCC(=O)O (stereo unspecified) ?
143.8

If you can, please state the reported Na value of CCCCNC(=O)NS(=O)(=O)c1ccc(C)cc1 [TOLBUTAMIDE] .
141.2

Could you share which Na value was measured for `CN(C/C=C/C#CC(C)(C)C)Cc1cccc2ccccc12` ?
140.6

May I ask what Na has been recorded for NS(=O)(=O)c1cc(C(=O)O)c(NCc2ccco2)cc1Cl [FUROSEMIDE] ?
142.2

Request the reported Na associated with `COc1cc2ncnc(Nc3ccc(F)c(Cl)c3)c2cc1OCCCN1CCOCC1`
142.5

Which value of Na has been reported for `CCO` in the records?
139.6

Request the reported Na associated with `Nc1ccc(Cc2ccc(N)cc2)cc1`
141.8

// Na lookup, key: `O=C(O)c1ccccc1Nc1ccccc1`
143

Which Na is reported for this compound? `CN(C)CCCN1c2ccccc2Sc2ccc(Cl)cc21`
141.8

Param item = `CCN(CC)C(=S)SSC(=S)N(CC)CC` ; retrieve measured Na.
141

Param item = `C=C[C@H]1C[N@@]2CC[C@H]1C[C@@H]2[C@@H](O)c1ccnc2ccc(OC)cc12` ; retrieve measured Na.
143

---

- Species on record: Rattus norvegicus
- EXPERIMENT: Open TG-GATES - Regimen: Daily Repeat
- Format: toxicity, organism-based, Sprague-Dawley
- Parameters: regimen Daily Repeat, gender Male, age 6 weeks
- CONDITION_CONTEXT: in vivo, po, 300 mg/kg, […], tissue Blood, route gavage, dose level Middle, time 7 day
RECORDED_ENDPOINT: Ht
Field note: include the unit after the figure.

Requested read-out: Ht. Entry: CC(=O)[C@@]1(O)CC[C@H]2[C@@H]3C=C(Cl)C4=CC(=O)CC[C@]4(C)[C@H]3CC[C@@]21C [CHLORMADINONE]
42.9%

What does the data say about its Ht? Entry: O=C(O)c1ccccc1Nc1ccccc1 [FENAMIC ACID]
40.4%

So what's the measured Ht for this one? CCCCNC(=O)NS(=O)(=O)c1ccc(C)cc1 [TOLBUTAMIDE]
42.1%

# get_value(readout='Ht', item= CC(S)C(=O)NCC(=O)O (centres undefined) [TIOPRONIN] )
40.4%

---

- Species: Rattus norvegicus
- EXPERIMENT: Open TG-GATES - Regimen: Daily Repeat
- Format: toxicity, organism-based, Sprague-Dawley
- Design: regimen Daily Repeat, gender Male, age 6 weeks
- CONDITION_CONTEXT: in vivo, po, 100 mg/kg, […], tissue Plasma, route gavage, dose level Low, time 28 day
RECORDED_ENDPOINT: IP (mg/dL)
Unit mg/dL implied. Number only.

Consider the compound CC(S)C(=O)NCC(=O)O (centres undefined) and give its measured IP.
6.2

For `O=C(O)c1ccccc1Nc1ccccc1` , what is its reported IP?
6.5

May I ask what IP has been recorded for `CC(=O)[C@@]1(O)CC[C@H]2[C@@H]3C=C(Cl)C4=CC(=O)CC[C@]4(C)[C@H]3CC[C@@]21C` ?
6.5

Give its IP value. Item: CCCCNC(=O)NS(=O)(=O)c1ccc(C)cc1 [TOLBUTAMIDE]
6.7

---

- Species on record: Rattus norvegicus
- EXPERIMENT: Open TG-GATES - Regimen: Daily Repeat
- Type: toxicity, organism-based, Sprague-Dawley
- Design: regimen Daily Repeat, gender Male, age 6 weeks
- CONDITION_CONTEXT: in vivo, po, 300 mg/kg, […], tissue Blood, route gavage, dose level Middle, time 7 day
Assignment: determine reported MCV for the given molecules.
Report the figure in fL without appending any unit label.

// MCV lookup, key: CC(S)C(=O)NCC(=O)O (centres undefined) [TIOPRONIN]
62.1

Requested field: MCV. Item: O=C(O)c1ccccc1Nc1ccccc1 [FENAMIC ACID]
61.5

Please look up its MCV: CCCCNC(=O)NS(=O)(=O)c1ccc(C)cc1 [TOLBUTAMIDE]
62.5

Would you kindly share the measured MCV for CC(=O)[C@@]1(O)CC[C@H]2[C@@H]3C=C(Cl)C4=CC(=O)CC[C@]4(C)[C@H]3CC[C@@]21C [CHLORMADINONE] ?
60.9

---

- Organism: Rattus norvegicus
- EXPERIMENT: Open TG-GATES - Regimen: Daily Repeat
- Format: toxicity, organism-based, Sprague-Dawley
- Design: regimen Daily Repeat, gender Male, age 6 weeks
- CONDITION_CONTEXT: in vivo, po, 300 mg/kg, […], tissue Blood, route gavage, dose level Middle, time 7 day
RECORDED_ENDPOINT: Bas (%)
Kindly answer with a numeric value in %, unit omitted.

Sample `O=C(O)c1ccccc1Nc1ccccc1` — what was its Bas?
0.6

Request the reported Bas associated with CCCCNC(=O)NS(=O)(=O)c1ccc(C)cc1 [TOLBUTAMIDE]
0.4

Recorded Bas for CC(S)C(=O)NCC(=O)O (centres undefined) , please?
0

// returns reported Bas for input `CC(=O)[C@@]1(O)CC[C@H]2[C@@H]3C=C(Cl)C4=CC(=O)CC[C@]4(C)[C@H]3CC[C@@]21C`
0

---

- Organism: Rattus norvegicus
- EXPERIMENT: Open TG-GATES - Regimen: Single
- Assay type: toxicity, organism-based, Sprague-Dawley
- Design: regimen Single, gender Male, age 6 weeks
- CONDITION_CONTEXT: in vivo, po, 0 mg/kg, 6 h, tissue Blood, route gavage, dose level Control
RECORDED_ENDPOINT: Neu (%)
# output: bare number, implied unit %

Look up Neu for this compound: NS(=O)(=O)c1cc(C(=O)O)c(NCc2ccco2)cc1Cl [FUROSEMIDE]
19.4

What does the record list as Neu for `COc1cc2ncnc(Nc3ccc(F)c(Cl)c3)c2cc1OCCCN1CCOCC1` ?
12.8

What measured Neu goes with `CCO` ?
15.8

Which Neu value belongs to `O=c1ccc2ccccc2o1` ?
16.6

Report Neu for `Nc1ccc(Cc2ccc(N)cc2)cc1` please.
21.6

Return reported Neu; argument: `CN(C)CCCN1c2ccccc2Sc2ccc(Cl)cc21`
17.4

Which Neu is reported for this compound? `CN(C/C=C/C#CC(C)(C)C)Cc1cccc2ccccc12`
22.4

Need Neu, item CCCCNC(=O)NS(=O)(=O)c1ccc(C)cc1 [TOLBUTAMIDE]
15.8

Name the recorded Neu for CC(S)C(=O)NCC(=O)O (configuration not stated) .
14.2

Data request, read-out Neu, for CN(CCOc1ccc(CC2SC(=O)NC2=O)cc1)c1ccccn1.O=C(O)/C=C\C(=O)O (configuration not stated) [ROSIGLITAZONE MALEATE]
14.6

Request the reported Neu associated with `CC(=O)[C@@]1(O)CC[C@H]2[C@@H]3C=C(Cl)C4=CC(=O)CC[C@]4(C)[C@H]3CC[C@@]21C`
15.4

Value lookup for Neu; key = `O=C(O)c1ccccc1Nc1ccccc1`
19.6
